# System: Escherichia coli
# Test details: Antibacterial activity against Escherichia coli JM83 harboring pHF022 containing aminoglycoside 2''-2a phosphotransferase R92H/D268N mutant by broth microdilution method
# Format: functional

Compound	Value units	MIC
NC[C@H]1O[C@H](O[C@H]2[C@H](O)[C@@H](O[C@H]3O[C@H](CO)[C@@H](O)[C@H](N)[C@H]3O)[C@H](N)C[C@@H]2N)[C@H](N)[C@@H](O)[C@@H]1O [BEKANAMYCIN]	µg/mL	64
NC[C@@H]1CC[C@@H](N)[C@@H](O[C@H]2[C@H](O)[C@@H](O[C@H]3O[C@H](CO)[C@@H](O)[C@H](N)[C@H]3O)[C@H](N)C[C@@H]2N)O1 [DIBEKACIN]	µg/mL	64
CCN[C@@H]1C[C@H](N)[C@@H](O[C@H]2OC(CN)=CC[C@H]2N)[C@H](O)[C@H]1O[C@H]1OC[C@](C)(O)[C@H](NC)[C@H]1O [NETILMICIN]	µg/mL	8
CN[C@@H]1[C@@H](O)[C@@H](O[C@@H]2[C@@H](O)[C@H](O[C@H]3OC(CN)=CC[C@H]3N)[C@@H](N)C[C@H]2N)OC[C@]1(C)O [SISOMICIN]	µg/mL	8
NC[C@H]1O[C@H](O[C@H]2[C@H](O)[C@@H](O[C@H]3O[C@H](CO)[C@@H](O)[C@H](N)[C@H]3O)[C@H](N)C[C@@H]2N)[C@H](N)C[C@@H]1O [TOBRAMYCIN]	µg/mL	64
